Biological target: B. anthracis NMAT (Bacillus anthracis)
Sequence (C3L5T6 whole entry, looked up): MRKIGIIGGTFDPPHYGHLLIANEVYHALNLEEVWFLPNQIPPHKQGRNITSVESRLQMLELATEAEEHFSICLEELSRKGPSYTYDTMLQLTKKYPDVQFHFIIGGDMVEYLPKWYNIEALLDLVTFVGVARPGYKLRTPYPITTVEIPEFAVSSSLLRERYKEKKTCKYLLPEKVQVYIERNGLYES
Test: biochemical
Assay type: binding
Assay Readout: pKd
Please report pKd as the negative decimal logarithm of the molar concentration, giving only the number.

# value lookup — system B. anthracis NMAT (Bacillus anthracis), readout pKd, item Nc1ncnc2c1ncn2[C@@H]1O[C@H](COP(=O)(O)OP(=O)(O)OP(=O)(O)O)[C@@H](O)[C@H]1O [ATP, adenosine triphosphate]
3.67

The values you see were collected from paper PMC2654404.
